Data provenance: PubChem BioAssay (NCATS)

System: P94_40
Assay: qHTS profiling for inhibitors of Plasmodium falciparum proliferation (AID 504749); note: nearly all actives have a fitted effect of over 60% in size; note: potency is the fitted concentration of half-maximal effect
Conditions: P. falciparum in erythrocytes, SYBR Green DNA, 72 h; series mostly up to 28.7 µM
Records with an inconclusive call do not appear. Activity calls are given as the source filed them. Calls come from the whole dose curve; as a rule, active = well fitted inhibition curve with a large enough effect; inconclusive = small, poorly fitted or top-dose-only effect; inactive = flat fitted curve, though single readings scatter.
metric_name: Potency

molecule	tgt	metric_name	recorded_value
CC(C)NC[C@H](O)COc1ccc(CC(N)=O)cc1	P94_40	Potency	inactive
c1ccc(C2CN3CCSC3=N2)cc1 (centres undefined)	P94_40	Potency	3.55 µM (active)
CCCCCCCCCCCCCCCCCCOC[C@H](COP(=O)([O-])OCC[N+](C)(C)C)OC	P94_40	Potency	inactive
CC(O)C(O)[C@H]1CNc2nc(N)[nH]c(=O)c2N1 (some centres undefined)	P94_40	Potency	inactive
